Measured values drawn from PubChem BioAssay (NCI) for this set.

System: HCT-116 colon
Assay Details: NCI-60 one-dose screen, 48 h
Condition Info: 10 µM unless noted
The panel holds about 83,000 compounds, 20% with a hit somewhere; the sample as a whole holds those more often. The source made the active and inactive calls. Rule for the calls: active = growth percent below 10; inactive = the rest.
Please answer using one outcome listed in active, inactive

// below: answered compounds
Short answer needed: outcome of this test for CCOC(=O)C1OC1(c1ccccc1)c1ccccc1 (configuration not stated) ? inactive

Short answer needed: outcome of this test for `Oc1cccc2ccc(N/N=C/c3cc(CN4CCCCC4)c(O)c4ncccc34)nc12` ? active

Short answer needed: outcome of this test for `NCCn1cc(-c2nc(-c3c[nH]c4ncccc34)cs2)c2cc(F)ccc21` ? inactive

Short answer needed: outcome of this test for Nc1c2c(nc3ccc(Br)cc13)CC(c1ccccc1)CC2=O (configuration not stated) ? inactive

Short answer needed: outcome of this test for O=C1CCN2C(=O)Nc3ccccc3C2C1 (configuration not stated) ? inactive

Next:
Short answer needed: outcome of this test for `O=C(Nc1ccc(/C=C2\SC(=O)N(Cc3ccc(OC(F)(F)F)cc3)C2=O)cc1)c1ccc(Cl)c([N+](=O)[O-])c1` ? inactive

Short answer needed: outcome of this test for `O=C1c2cccc3cccc(c23)C(=O)N1CC#Cc1ccc2c3c(cccc13)C(=O)N(CCO)C2=O` ? inactive

Short answer needed: outcome of this test for `COc1ccc(C2=NN(c3nc(-c4ccc(OC)cc4)c(C#N)c(=O)n3C)C(=O)CC2)cc1` ? inactive

Short answer needed: outcome of this test for CCC(c1ccc(OC)cc1)C(CC)c1ccc(O)c(CN2CCCCC2)c1 (configuration not stated) ? inactive

Short answer needed: outcome of this test for `Cn1cc(-c2nc(-c3cn(C)c4ncccc34)cs2)c2cc(F)ccc21` ? inactive
